testProtocol: Beagle dog PK study 1 of Example 101 (propylene glycol-based formulation, IV and PO), with clinical observations
Type: in vivo
experimentalSetup: beagle, dog, plasma, iv, 1 mg/kg, dog PK study 1, IV, 0.083 h, Test Animal 2; read-out: Plasma concentration
metric: concentration at 0.083 h (ng/mL)

molecule="CNC(=O)c1[nH]c(C(=O)NC2CCC2)cc1O[C@@H](C)c1ccccc1 (stereo in doubt) [Example 101]" resultunits=ng/mL measuredresult=1320

----------
testProtocol: Pharmacokinetics and plasma concentration of Example 101 in Lewis rats after oral administration (CIA study)
Format: in vivo, Lewis rat
experimentalSetup: Lewis, rat, plasma, po, 10 mg/kg, oral, day 0, 10 mg/kg, Mean
metric: AUC(0-t)

compound="CNC(=O)c1[nH]c(C(=O)NC2CCC2)cc1O[C@@H](C)c1ccccc1 (stereo in doubt)" measuredresult="15000 ng·h/mL"

----------
testProtocol: Sprague-Dawley rat pharmacokinetics, IV and PO cassette dosing
Assay type: in vivo
experimentalSetup: IV 1 mg/kg, Method 1
metric: IV T1/2 (min)

compound="CNC(=O)c1[nH]c(C(=O)NC2CCC2)cc1OC(C)c1ccc(Cl)cc1F (single isomer, unassigned)" measuredresult=30
compound="CCNC(=O)c1cc(OC(C)c2ccc(Cl)cc2F)c(C(=O)NC)[nH]1 (single isomer, unassigned)" measuredresult=18
compound="CCNC(=O)c1cc(OC(C)c2ccc(Cl)cc2)c(C(=O)NC)[nH]1 (single isomer, unassigned)" measuredresult=66
compound="CCNC(=O)c1cc(OC(C)c2ccccc2F)c(C(=O)NC)[nH]1 (single isomer, unassigned)" measuredresult=24
compound="CNC(=O)c1[nH]c(C(=O)NC2CCC2)cc1OC(C)c1ccc(Cl)cc1 (single isomer, unassigned)" measuredresult=24
compound="CNC(=O)c1[nH]c(C(=O)NC2CCC2)cc1OC(C)c1ccccc1F (single isomer, unassigned)" measuredresult=30

----------
testProtocol: Beagle dog PK study 1 of Example 101 (propylene glycol-based formulation, IV and PO), with clinical observations
Type: in vivo
experimentalSetup: beagle, dog, plasma, iv, 1 mg/kg, dog PK study 1, IV, 0.5 h, Test Animal 1; read-out: Plasma concentration
metric: concentration at 0.5 h (ng/mL)

compound="CNC(=O)c1[nH]c(C(=O)NC2CCC2)cc1O[C@@H](C)c1ccccc1 (stereo in doubt)" measuredresult=1040

----------
studyTarget: BRD4 BD2 (Homo sapiens (Human), UniProt O60885)
testProtocol: NanoBRET bromodomain assay, NanoLuc-BRD4-BD2 fusion in HEK293 cells;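 also: tracer displacement BRET read in transfected cells after 2 h compound exposure at 37 °C, signal in milliBRET units corrected against no-tracer background wells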
experimentalSetup: BRD4 BD2 (IC50), NanoBRET, HEK293 cells, top concentration 10 μM
metric: IC50

compound="CNC(=O)c1[nH]c(C(=O)NC2CCC2)cc1O[C@@H](C)c1ccccc1 (stereo in doubt)" metric=IC50 measuredresult="< 50 nM"
compound="CNC(=O)c1[nH]c(C(=O)N[C@H]2CC[C@H](O)CC2)cc1O[C@@H](C)c1ccnnc1 (single isomer, unassigned)" metric=IC50 measuredresult="> 10000 nM"
compound=CNC(=O)c1[nH]c(C(=O)N[C@H]2C[C@H](O)C2)cc1O[C@@H](C)c1ccccc1 metric=IC50 measuredresult="50 to 200 nM"
compound="CCNC(=O)c1cc(OC(C)c2ccc(OC)cc2)c(C(=O)NC)[nH]1 (single isomer, unassigned) [Example 75]" metric=IC50 measuredresult="50 to 200 nM"
compound=CNC(=O)c1[nH]c(C(=O)N[C@H]2CC[C@H](O)C2)cc1O[C@@H](C)c1ccccc1 metric=IC50 measuredresult="50 to 200 nM"
compound=CNC(=O)c1[nH]c(-c2cnn(C(F)(F)F)c2)cc1O[C@@H](C)c1ccccc1 metric=IC50 measuredresult="< 50 nM"
compound="CCNC(=O)c1cc(OC(C)c2ccc3c(c2)COC3)c(C(=O)NC)[nH]1 (racemic)" metric=IC50 measuredresult="200 to 1000 nM"
compound="CNC(=O)c1[nH]c(C(=O)N[C@H]2CC[C@H](OC)CC2)cc1OC(C)c1ccccc1 (single isomer, unassigned) [Example 100]" metric=IC50 measuredresult="> 10000 nM"
compound="CCNC(=O)c1cc(OC(CO)c2ccccc2)c(C(=O)NC)[nH]1 (racemic)" metric=IC50 measuredresult="1000 to 10000 nM"
compound=CNC(=O)c1[nH]c(C(=O)N[C@@H]2CCC(F)(F)C2)cc1O[C@@H](C)c1ccccc1 metric=IC50 measuredresult="200 to 1000 nM"
compound="C#Cc1ccc(C(C)Oc2cc(C(=O)NCC)[nH]c2C(=O)NC)cc1 (single isomer, unassigned)" metric=IC50 measuredresult="< 50 nM"
compound="CCNC(=O)c1cc(OC(C)c2ccc(C(F)(F)F)cc2)c(C(=O)NC)[nH]1 (racemic)" metric=IC50 measuredresult="200 to 1000 nM"
compound="CCNC(=O)c1cc(OC(C)c2ccc(OC)cc2)c(C(=O)NC)[nH]1 (single isomer, unassigned) [Example 76]" metric=IC50 measuredresult="> 10000 nM"
compound=CNC(=O)c1[nH]c(C(=O)NC2CC2)cc1O[C@@H](C)c1ccccc1 metric=IC50 measuredresult="50 to 200 nM"
compound="CCNC(=O)c1cc(OC(CC)c2ccccc2)c(C(=O)NC)[nH]1 (racemic)" metric=IC50 measuredresult="200 to 1000 nM"

FYI, the data here is from patent US20250263370A1.
